molecular target: GST-LXRβ ligand-binding domain (Homo sapiens, UniProt P55055, INS174Q); construct: amino acids 156-461; NP009052; experiment: TR-FRETβ activity assay (NCoA3 coactivator peptide recruitment); conditions: 1 μM 24(S)-25-epoxycholesterol as prestimulating agonist; inverse agonist unless *
Sequence (P55055 with tags, fused parts or gaps INS174Q limits assumed): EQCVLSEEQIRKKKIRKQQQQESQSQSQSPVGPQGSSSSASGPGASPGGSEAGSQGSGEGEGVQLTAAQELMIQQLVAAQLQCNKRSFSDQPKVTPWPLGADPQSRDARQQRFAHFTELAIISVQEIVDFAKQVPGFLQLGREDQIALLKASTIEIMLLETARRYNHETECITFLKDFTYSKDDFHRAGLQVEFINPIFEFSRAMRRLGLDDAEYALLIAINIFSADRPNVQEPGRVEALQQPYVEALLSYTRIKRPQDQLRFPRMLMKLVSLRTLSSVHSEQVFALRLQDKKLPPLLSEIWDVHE
pEC50: −log10 of the molar value.
test-readout: pEC50

• Cc1cc(C)c(CN(Cc2ccc(C(F)(F)F)o2)Cc2sc(-c3cccc(S(=O)(=O)CC(=O)O)c3)cc2Cl)c(C)c1 = < 5.00
• COc1cnc2cccnc2c1C(=O)N(Cc1ccc(C(F)(F)F)o1)Cc1ccc(-c2cccc(C(C)(C)C(=O)O)c2)cc1Cl = > 7.00
• CCc1ccc2ccccc2c1CN(Cc1ccc(-c2cccc(C(C)(C)C(=O)O)c2)cc1)Cc1ccc(C(F)(F)F)o1 = 6.00 to 7.00
• Cc1ccc2ccccc2c1C(=O)N(Cc1ccc(-c2cccc([C@H](C)C(=O)O)c2)cc1)Cc1cccc(C#N)c1 = 6.00 to 7.00
• Cc1cc(C)c(CN(Cc2ccc(-c3cccc(S(=O)(=O)CC(=O)NS(=O)(=O)N(C)C)c3)cc2)Cc2ccc(C(F)(F)F)o2)c(C)c1 = < 5.00
• Cc1cc(C)c(CN(Cc2ccc(-c3cccc(S(=O)(=O)CC(=O)O)c3)cc2)Cc2cccc(C(F)(F)F)c2)c(C)c1 = 5.00 to 6.00
• Cc1ccc2ccccc2c1CN(Cc1ccc(-c2cncc(C(C)(C)C(=O)O)c2)cc1)Cc1ccc(C(F)(F)F)o1 = 5.00 to 6.00

* * *

molecular target: LXRβ full length (FL) (Homo sapiens, UniProt P55055, INS174Q); construct: the full length (FL) proteins of LXRα (amino acids 1-447); NP005684; NP009052; assay: LXR Gal4 reporter transient transfection assay, mammalian two-hybrid, FL-M2H Gal4β; details: HEK293 cells; inverse agonist unless *
Sequence (P55055 with tags, fused parts or gaps INS174Q): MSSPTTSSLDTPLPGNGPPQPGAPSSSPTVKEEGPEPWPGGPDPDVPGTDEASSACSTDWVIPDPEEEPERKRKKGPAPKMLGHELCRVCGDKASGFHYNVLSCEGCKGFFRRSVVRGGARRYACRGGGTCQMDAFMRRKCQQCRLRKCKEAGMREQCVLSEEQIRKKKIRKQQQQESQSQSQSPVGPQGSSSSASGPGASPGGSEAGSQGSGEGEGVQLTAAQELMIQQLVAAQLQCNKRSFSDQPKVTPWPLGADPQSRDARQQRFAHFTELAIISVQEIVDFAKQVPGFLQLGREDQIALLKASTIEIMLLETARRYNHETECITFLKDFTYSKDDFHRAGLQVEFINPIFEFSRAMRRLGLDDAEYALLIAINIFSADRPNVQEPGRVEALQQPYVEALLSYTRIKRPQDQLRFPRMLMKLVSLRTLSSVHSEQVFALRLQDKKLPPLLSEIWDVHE
pEC50: −log10 of the molar value.
test-readout: pEC50

* Cc1cc(C(=O)N(Cc2ccc(C(F)(F)F)o2)Cc2ccc(-c3cccc(C(C)(C)C(=O)O)c3)cc2Cl)c2ncccc2n1 [27/123] | > 7.00
* CCc1cc(C)cc(C)c1CN(Cc1ccc(-c2cccc(S(=O)(=O)CC(=O)O)c2)cc1)Cc1ccc(C(F)(F)F)o1 [27/35] | 6.00 to 7.00
* Cc1ccc2ccccc2c1C(=O)N(Cc1ccc(-c2cccc(S(=O)(=O)CC(=O)O)c2)cc1)Cc1ccc(C#N)o1 [27/2] | 5.00 to 6.00
* Cc1c(CN(Cc2ccc(-c3cccc(C(C)(C)C(=O)O)c3)cc2)Cc2ccc(C(F)(F)F)o2)c2ccccc2n(C)c1=O [27/23] | > 7.00
* CN1CCc2nc3ccccc3c(C(=O)N(Cc3ccc(-c4cccc(C(C)(C)C(=O)O)c4)cc3)Cc3ccc(C(F)(F)F)o3)c2C1 [27/80] | 6.00 to 7.00
* Cc1cc(C)c(CN(Cc2ccc(-c3cccc(S(=O)(=O)CC(=O)O)c3)cc2)Cc2ccc(C(F)(F)F)o2)c(C)c1C [27/34] | 6.00 to 7.00
* Cc1ccc2ccc(C#N)cc2c1CN(Cc1ccc(-c2cccc(C(C)(C)C(=O)O)c2)cc1)Cc1ccc(C(F)(F)F)o1 [27/27] | > 7.00
* Cc1ccc2ccccc2c1C(=O)N(CCc1cccc(Br)c1)Cc1ccc(-c2cccc(C(C)(C)C(=O)O)c2)cc1 [27/30] | > 7.00
* Cc1nc2cccnc2c(C(=O)N(Cc2ccc(-c3cccc(C(C)(C)C(=O)O)c3)cc2)Cc2ccc(C(F)F)o2)c1C [27/126] | 6.00 to 7.00
* Cc1ccc2ccccc2c1C(=O)N(Cc1ccc(C(F)(F)F)o1)Cc1ccc(-c2cncc(S(=O)(=O)CC(=O)O)c2)cc1Cl [27/58] | 6.00 to 7.00
* Cc1ccc2ccccc2c1C(=O)N(Cc1ccc(-c2cccc(S(=O)(=O)CC(=O)O)c2)cc1)Cc1ccc(C(F)(F)F)n1C [Example 28] | 5.00 to 6.00
* COc1c(C)nc2ccccc2c1C(=O)N(Cc1ccc(-c2cccc(C(C)(C)C(=O)O)c2)cc1)Cc1ccc(C(F)(F)F)o1 [27/81] | > 7.00
* Cc1ccc2ccccc2c1C(=O)N(Cc1ccc(-c2cccc([C@H](C)C(=O)O)c2)cc1)Cc1cccc(C#N)c1 [27/84] | > 7.00
* COc1nc(-c2cccc(C(C)(C)C(=O)O)c2)ccc1CN(Cc1ccc(C(F)(F)F)o1)C(=O)c1c(C)ccc2ccccc12 [27/77] | > 7.00
* Cc1ccc2ccccc2c1C(=O)N(Cc1ccc(-c2cccc(C(C)(C)C(=O)O)c2)cc1)Cc1ccc(C(F)(F)F)o1 [27/26] | > 7.00
* Cc1ccc2ncnn2c1C(=O)N(Cc1ccc(-c2cccc(C(C)(C)C(=O)O)c2)cc1)Cc1ccc(C(F)(F)F)o1 [27/121] | > 7.00
* COc1ccc2c(CN(Cc3ccc(-c4cccc(C(C)(C)C(=O)O)c4)cc3)Cc3ccc(C(F)(F)F)o3)cc(C)cc2c1 [27/24] | > 7.00
* Cc1ccc2ccccc2c1C(=O)N(Cc1ccc(-c2cccc(S(=O)(=O)CC(=O)O)c2)cc1)Cc1ccc(C(F)(F)F)[nH]1 [27/3] | 5.00 to 6.00
* COc1cc(-c2cc(F)c(CO)c(S(=O)(=O)CC(=O)O)c2)ccc1CN(Cc1ccc(C(F)(F)F)o1)Cc1c(C)cc(C)cc1C [22/10] | 6.00 to 7.00
* Cc1cnc2cccnc2c1C(=O)N(Cc1ccc(C(F)(F)F)o1)Cc1ccc(-c2cccc(C(C)(C)C(=O)O)c2)cc1Cl [27/115] | > 7.00
* CCc1nc2ccncc2c(C(=O)N(Cc2ccc(-c3cccc(C(C)(C)C(=O)O)c3)cc2)Cc2ccc(C(F)(F)F)o2)c1C [27/89] | 6.00 to 7.00
* COc1ccc2c(c1CN(Cc1ccc(-c3cccc(C(C)(C)C(=O)O)c3)cc1)Cc1ccc(C(F)(F)F)o1)CCCC2 [27/17] | > 7.00
* Cc1ccc2ccccc2c1C(=O)N(Cc1ccc(-c2cccc(C(C)(C)C(=O)O)c2)cc1)Cc1ccc(C(C)(C)C)o1 [27/1] | > 7.00
* Cc1nc2cccnc2c(CN(Cc2ccc(-c3cccc(C(C)(C)C(=O)O)c3)cc2)Cc2ccc(C(F)(F)F)o2)c1C [27/133] | > 7.00
* Cc1ccc2ccccc2c1C(=O)N(Cc1ccc(-c2cccc([C@H](C)C(=O)O)c2)cc1)Cc1ccc(C(F)(F)F)o1 [10/6] | > 7.00
* CCc1cc(C)c(CN(Cc2ccc(-c3cccc(C(C)(C)C(=O)O)c3)cc2)Cc2ccc(C(F)(F)F)o2)c(C)c1 [27/32] | > 7.00
* Cc1nc2ccc(=O)[nH]c2c(C(=O)N(Cc2ccc(-c3cccc(C(C)(C)C(=O)O)c3)cc2)Cc2ccc(C(F)(F)F)o2)c1C [Example 36] | 5.00 to 6.00

* * *

experiment: Pharmacokinetics in mice after single oral dosing, blood and liver exposure by LC-MS; type: in vivo, mice (C57/bl6/J); details: single oral dose 20 mg/kg, time point 12 h
Threshold 0.06 µM. blood/plasma exposure below it: y. blood/plasma exposure at it or above: n.

• Cc1ccc2ccccc2c1CN(Cc1ccc(-c2cccc(C(C)(C)C(=O)O)c2)cc1)Cc1ccc(C(F)(F)F)o1 = n
• Cc1ccc2ccccc2c1C(=O)N(Cc1ccc(-c2cccc(C(C)(C)C(=O)O)c2)cc1)Cc1ccc(C(F)(F)F)o1 = n
• Cc1ccc2ccccc2c1C(=O)N(Cc1ccc(-c2cc(F)c(CO)c(S(=O)(=O)CC(=O)O)c2)cc1)Cc1ccc(C(F)(F)F)o1 = n
• Cc1cc(C)c(CN(Cc2ccc(-c3cncc(S(=O)(=O)CC(=O)O)c3)cc2)Cc2ccc(C(F)(F)F)o2)c(C)c1 = n
• Cc1ccc2c(F)cccc2c1C(=O)N(Cc1ccc(-c2cccc(C(C)(C)C(=O)O)c2)cc1)Cc1ccc(C(F)(F)F)o1 = n
• CCc1nc2ccccc2c(C(=O)N(Cc2ccc(-c3cccc(C(C)(C)C(=O)O)c3)cc2)Cc2ccc(C(F)(F)F)o2)c1C = y
• Cc1ccc2ccccc2c1C(=O)N(Cc1ccc(-c2cccc(C(C)(O)C(=O)O)c2)cc1)Cc1ccc(C(F)(F)F)o1 (stereo not drawn) = y
• Cc1cc(C)c(CN(Cc2ccc(-c3cccc(C(C)(C)C(=O)O)c3)cc2)Cc2ccc(C(F)(F)F)o2)c(C)c1 = n

* * *

The reader will find reported pEC50 values listed item by item below.
target: LXRα full length (FL) (Homo sapiens); construct: the full length (FL) proteins of LXRα (amino acids 1-447); NP005684; assay: LXR Gal4 reporter transient transfection assay, mammalian two-hybrid, FL-M2H Gal4α; details: HEK293 cells; inverse agonist unless *
Sequence (Q13133 whole entry, the tested form may be a part): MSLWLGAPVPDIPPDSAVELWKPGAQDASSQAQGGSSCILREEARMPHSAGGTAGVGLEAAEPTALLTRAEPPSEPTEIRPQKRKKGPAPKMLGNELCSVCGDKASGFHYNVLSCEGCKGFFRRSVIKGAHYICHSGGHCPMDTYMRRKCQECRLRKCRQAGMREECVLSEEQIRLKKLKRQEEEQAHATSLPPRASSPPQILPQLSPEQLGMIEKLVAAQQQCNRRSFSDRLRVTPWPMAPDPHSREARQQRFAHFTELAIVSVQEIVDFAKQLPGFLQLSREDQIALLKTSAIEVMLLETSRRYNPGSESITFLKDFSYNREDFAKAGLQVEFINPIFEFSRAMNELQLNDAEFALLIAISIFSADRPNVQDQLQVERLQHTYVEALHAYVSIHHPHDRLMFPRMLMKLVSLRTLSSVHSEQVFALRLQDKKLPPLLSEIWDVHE
pEC50: −log10 of the molar value.
test-readout: pEC50

• Cc1ccc2ccccc2c1C(=O)N(Cc1ccc(C(F)(F)F)o1)Cc1ccc(-c2cncc(S(=O)(=O)CC(=O)O)c2)cc1Cl = 6.00 to 7.00
• Cc1ccc2ccc(C#N)cc2c1CN(Cc1ccc(-c2cccc(C(C)(C)C(=O)O)c2)cc1)Cc1ccc(C(F)(F)F)o1 = > 7.00
• Cc1c(CN(Cc2ccc(-c3cccc(C(C)(C)C(=O)O)c3)cc2)Cc2ccc(C(F)(F)F)o2)c2ccccc2[nH]c1=O = 6.00 to 7.00
• Cc1cc(C)c(CN(Cc2ccc(C(F)(F)F)o2)Cc2ccc(-c3cccc(S(=O)(=O)CC(=O)O)c3)cc2F)c(C)c1 = 6.00 to 7.00
• Cc1nc2ncccc2c(C(=O)N(Cc2ccc(-c3cccc(C(C)(C)C(=O)O)c3)cc2)Cc2ccc(C(F)(F)F)o2)c1C = 6.00 to 7.00
• COc1cc(-c2cc(F)c(CO)c(S(=O)(=O)CC(=O)O)c2)ccc1CN(Cc1ccc(C(F)(F)F)o1)Cc1c(C)cc(C)cc1C = 5.00 to 6.00
• COC(C)(C(=O)O)c1cccc(-c2ccc(CN(Cc3ccc(C(F)(F)F)o3)C(=O)c3c(C)ccc4ccccc34)cc2)c1 (centres unmarked) = > 7.00
• COc1ccc2c(c1C(=O)N(Cc1ccc(-c3cccc(C(C)(C)C(=O)O)c3)cc1)Cc1ccc(C(F)(F)F)o1)CCCC2 = > 7.00
• COc1ccc2c(c1CN(Cc1ccc(-c3cccc(C(C)(C)C(=O)O)c3)cc1)Cc1ccc(C(F)(F)F)o1)CCCC2 = > 7.00
• COCc1c(C)cc(C)c(C(=O)N(Cc2ccc(-c3cccc(C(C)(C)C(=O)O)c3)cc2)Cc2ccc(C(F)(F)F)o2)c1C = > 7.00
• Cc1ccc2ccccc2c1C(=O)N(Cc1ccc(-c2cccc(C(C)(C)C(=O)O)c2)cc1)C1CCc2ccc(C(F)(F)F)cc21 (centres unmarked) = > 7.00
• CC(C)(C(=O)O)c1cccc(-c2ccc(CN(Cc3ccc(C(F)(F)F)o3)C(=O)c3cc(C4CC4)nc4ccccc34)cc2)c1 = 6.00 to 7.00
• Cc1cc(C)c(CN(Cc2ccc(C(F)(F)F)o2)Cc2ccc(-c3cccc(S(=O)(=O)CC(=O)O)c3)cc2C)c(C)c1 = 5.00 to 6.00
• Cc1c(CN(Cc2ccc(-c3cccc(C(C)(C)C(=O)O)c3)cc2)Cc2ccc(C(F)(F)F)o2)c2ccccc2n(C)c1=O = > 7.00
